Source of measurements: paper PMC9275217

- Substrate: CC(C)CC(=O)C(=O)O
- assayNotes: purified protein
- Type: biochemical, Saccharomyces cerevisiae
- testSettings: forward reaction, 100 mM Glu, 50 μM PLP, 100 mM NH4Cl, 0.25 mM NADH, 200 mM potassium phosphate pH 8.0, 30°C, apparent
readoutLabel: Km (µM)

protein="Bat1ΔN16^WT (Saccharomyces cerevisiae S288C; G333S) (protein, first 16 residues (mitochondrial-targeting signal) removed; N-terminal His-tag (pET53-dest, tag not reported cut); E. coli BL21(DE3); dimer) LATGAPLDASKLKITRNPNPSKPRPNEELVFGQTFTDHMLTIPWSAKEGWGTPHIKPYGNLSLDPSACVFHYAFELFEGLKAYRTPQNTITMFRPDKNMARMNKSAARICLPTFESEELIKLTGKLIEQDKHLVPQGNGYSLYIRPTMIGTSKGLGVGTPSEALLYVITSPVGPYYKTGFKAVRLEATDYATRAWPGGVGDKKLGANYAPCILPQLQAAKRGYQQNLWLFGPEKNITEVGTMNVFFVFLNKVTGKKELVTAPLDGTILEGVTRDSVLTLARDKLDPQEWDINERYYTITEVATRAKQGELLEAFGSSTAAVVSPIKEIGWNNEDIHVPLLPGEQCGALTKQVAQWIADIQYGRVNYGNWSKTVADLN" readoutlabel=Km result=1570
